Values were extracted from patent US8906925B2.

- test target: UniProt:P14416
- Sequence (P14416 whole entry): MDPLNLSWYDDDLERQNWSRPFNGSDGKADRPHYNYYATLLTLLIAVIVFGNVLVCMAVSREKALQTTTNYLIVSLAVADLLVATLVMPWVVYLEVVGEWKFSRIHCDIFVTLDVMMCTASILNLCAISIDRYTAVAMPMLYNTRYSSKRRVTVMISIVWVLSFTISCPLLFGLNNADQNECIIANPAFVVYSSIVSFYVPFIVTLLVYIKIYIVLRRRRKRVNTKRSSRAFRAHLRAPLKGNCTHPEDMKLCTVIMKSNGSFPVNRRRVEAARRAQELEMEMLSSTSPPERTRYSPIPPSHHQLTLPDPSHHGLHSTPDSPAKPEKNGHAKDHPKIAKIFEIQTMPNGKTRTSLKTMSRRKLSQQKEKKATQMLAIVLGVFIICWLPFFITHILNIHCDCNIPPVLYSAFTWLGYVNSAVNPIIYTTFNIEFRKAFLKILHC
- assay name: Dopamine D2L radioligand binding ([3H]Spiperone)
- measurement parameters: percent inhibition of specific binding; compound at 1 μM; read-out: Inhibition of ligand binding, Dopamine D2L
- Source text: Non-specific binding was estimated in the presence of […] Haloperidol. Receptor proteins were filtered and washed, the filters were then counted to determine [^3H]Spiperone specifically bound. […] Biochemical assay results are presented as the percent inhibition of specific binding in Table 9.
readout name: inhibition at 1 µM (%)
Answers are plain numbers, in %.

For the 4 compounds below, give their inhibition at 1 µM values.
1. C/C(=C\n1c2c(c3cc(C)ccc31)CN(C)CC2)c1ccc(F)cc1F
2. C/C(=C\n1c2c(c3cc(C)ccc31)CN(C)CC2)c1ccc(Cl)c(Cl)c1
3. COc1ccc2c(c1)c1c(n2CC(C)(O)c2ccncc2)CCN(C)C1 (stereo not shown)
4. C/C(=C/n1c2c(c3cc(C)ccc31)CN(C)CC2)c1cc(F)c(F)cc1Cl

Result:
[82, 40, -5, 32]
